# Test Protocol: Pharmacokinetic drug-drug interaction study, single dose with multiple-dose partner, healthy subjects (Example 6)
# Assay type: in vivo, human
# Conditions: human, plasma, Compound 1 AUC0-last, Mean (% CV), Group 1, human, single-dose Compound 1 20 mg + multiple-dose Compound 2 150 mg BID
Measurement Type: AUC(0-t) (ng·h/mL)
Reply numerically in ng·h/mL, unit not repeated.

Request: Which AUC(0-t) is listed for Fc1ccccc1-c1nc2ccn(Cc3ccc(-c4ccc(C(F)(F)F)cc4C(F)(F)F)nn3)cc-2n1 ?
Result: 32600

###

# Test Protocol: Pharmacokinetic drug-drug interaction study, single dose with multiple-dose partner, healthy subjects (Example 6)
# Assay type: in vivo, human
# Conditions: human, plasma, 20 mg, Compound 1 T1/2, Median (min, max), Group 1, human, single-dose Compound 1 20 mg alone
Measurement Type: half-life (h)
Reply numerically in h, unit not repeated.

Request: Which half-life is listed for Fc1ccccc1-c1nc2ccn(Cc3ccc(-c4ccc(C(F)(F)F)cc4C(F)(F)F)nn3)cc-2n1 ?
Result: 16.6

###

# Test Protocol: Pharmacokinetic drug-drug interaction study, single dose with multiple-dose partner, healthy subjects (Example 6)
# Assay type: in vivo, human
# Conditions: human, plasma, Compound 1 AUCinf, Mean (% CV), Group 1, human, single-dose Compound 1 20 mg + multiple-dose Compound 2 150 mg BID
Measurement Type: AUC(0-inf)
Write the figure, then the unit, nothing else.

Request: Which AUC(0-inf) is listed for Fc1ccccc1-c1nc2ccn(Cc3ccc(-c4ccc(C(F)(F)F)cc4C(F)(F)F)nn3)cc-2n1 ?
Result: 49500 ng·h/mL

###

# Test Protocol: Pharmacokinetic drug-drug interaction study, single dose with multiple-dose partner, healthy subjects (Example 6)
# Type: in vivo, human
# Conditions: human, plasma, 75 mg, Group 3, human, Compound 2 75 mg SD alone; read-out: Compound 2 AUC0-last, Mean (% CV)
Measurement Type: AUC(0-t) (ng·h/mL)
Reply numerically in ng·h/mL, unit not repeated.

Request: Which AUC(0-t) is listed for COc1ccc2c(O[C@@H]3C[C@H]4C(=O)N[C@]5(P(=O)(O)Cc6c(F)cccc6F)C[C@H]5CCCCCCC[C@H](NC(=O)OC5CCCC5)C(=O)N4C3)cc(-c3csc(NC(C)C)n3)nc2c1Cl ?
Result: 8790

###

# Test Protocol: Pharmacokinetic drug-drug interaction study, single dose with multiple-dose partner, healthy subjects (Example 6)
# Format: in vivo, human
# Conditions: human, plasma, 40 mg, Compound 1 Cmax, Mean (% CV), Group 2, human, single-dose Compound 1 40 mg alone
Measurement Type: Cmax
Write the figure, then the unit, nothing else.

Request: Which Cmax is listed for Fc1ccccc1-c1nc2ccn(Cc3ccc(-c4ccc(C(F)(F)F)cc4C(F)(F)F)nn3)cc-2n1 [Compound 1] ?
Result: 1980 ng/mL

###

# Test Protocol: Pharmacokinetic drug-drug interaction study, single dose with multiple-dose partner, healthy subjects (Example 6)
# Type: in vivo, human
# Conditions: human, plasma, 75 mg, Group 3, human, Compound 2 75 mg SD alone; read-out: Compound 2 T1/2, Median (min, max) (converted)
Measurement Type: half-life (h)
Reply numerically in h, unit not repeated.

Request: Which half-life is listed for COc1ccc2c(O[C@@H]3C[C@H]4C(=O)N[C@]5(P(=O)(O)Cc6c(F)cccc6F)C[C@H]5CCCCCCC[C@H](NC(=O)OC5CCCC5)C(=O)N4C3)cc(-c3csc(NC(C)C)n3)nc2c1Cl ?
Result: 5.05
